- test.target: T1, Recombinant Human DLL4 (delta-like protein 4) (human, UniProt Q9NR61 27-524)
- T1 construct: also called rHuman DLL4; Delta-like 4
- experiment.summary: ECL (MSD) multispot binding assay, Fab on immobilised recombinant human DLL4

binder	ECL signal
Fab VH5-51_IGHD5-18*01>3_IGHJ4*01 G100K/G104T (H:KT) & V3-4_IGLJ1*01 N54A (Fab, V domains shown, Fab (CH1 with His6/Flag tags from Plasmid A, lambda CL from Plasmid E); also called G100K/G104T & N54A) VH: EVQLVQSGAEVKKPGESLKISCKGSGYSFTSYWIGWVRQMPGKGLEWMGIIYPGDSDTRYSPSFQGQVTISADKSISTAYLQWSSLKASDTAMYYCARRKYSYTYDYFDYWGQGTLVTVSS VL: QTVVTQEPSFSVSPGGTVTLTCGLSSGSVSTSYYPSWYQQTPGQAPRTLIYSTATRSSGVPDRFSGSILGNKAALTITGAQADDESDYYCVLYMGSGISYVFGTGTKVTVL	12900

The measurements presented in this section are drawn from patent US20120316071A1.
